test: Plasma concentration in Sprague-Dawley rat at 3 mg/kg,po and mesured after 3 hrs by LC-MS/MS analysis; assay type: ADME, organism-based
# key: entry, value: concentration at 3 h
Report as a plain number; the unit ng/mL is understood.

molecule	property.name	observed.result
C[C@@H]1Cc2c([nH]c3ccccc23)[C@@H](c2c(F)cc(N3CCC4(CCN(C(=O)CN5Cc6cc7c(cc6C5)C(=O)N(C5CCC(=O)NC5=O)C7=O)CC4)CC3)cc2F)N1CC(F)(F)CO (some centres not stated)	concentration at 3 h	6.6

Please look at the following molecule next.
Identify measured concentration at 3 h corresponding to C[C@@H]1Cc2c([nH]c3ccccc23)[C@@H](c2c(F)cc(N3CCC4(CCN(C(=O)CN5Cc6cc7c(cc6C5)C(=O)N(C5CCC(=O)NC5=O)C7=O)CC4)CC3)cc2F)N1CC(C)(C)F (some centres not stated)
8.2

====

experiment: Drug concentration in plasma of CB17 SCID mouse xenografted with human MCF7 cells harboring wild type ESR1 at 30 mg/kg, po qd for 3 days and measured after 6 hrs last dose by LC-MS/MS analysis; assay type: ADME, organism-based; details: time 3 day
property.name: concentration at 72 h (ng/mL)
Report as a plain number; the unit ng/mL is understood.

Identify measured concentration at 72 h corresponding to C[C@@H]1Cc2c(ccc3[nH]ncc23)[C@@H](c2c(F)cc(N3CCC4(CCN(C(=O)CN5Cc6cc7c(cc6C5)C(=O)N(C5CCC(=O)NC5=O)C7=O)CC4)CC3)cc2F)N1CC(F)F (stereo partly specified)
1440

====

# key: entry, value: Cmax at 24 h
test: in vivo; settings: Sprague-Dawley, rat, po, 3 mg/kg
Report as a plain number; the unit ng/mL is understood.

Consider the reported Cmax at 24 h for these molecules:
molecule	observed.result
C[C@@H]1Cc2c(ccc3[nH]ncc23)[C@@H](c2c(F)cc(N3CCC4(CCN(C(=O)CN5Cc6cc7c(cc6C5)C(=O)N(C5CCC(=O)NC5=O)C7=O)CC4)CC3)cc2F)N1CC(F)F (stereo partly drawn)	141
C[C@@H]1Cc2c(ccc3[nH]ncc23)[C@@H](c2ccc(N3CCC4(CCN(C(=O)CN5Cc6cc7c(cc6C5)C(=O)N(C5CCC(=O)NC5=O)C7=O)CC4)CC3)cn2)N1CC(F)(F)F (stereo partly drawn)	51.8

Please look at the following molecule next.
Identify measured Cmax at 24 h corresponding to O=C1CCC(N2C(=O)c3cc4c(cc3C2=O)CN(CC2CCN(CC3CCN(c5ccc([C@@H]6c7ccc(O)cc7CC[C@@H]6c6ccccc6)cc5)CC3)CC2)C4)C(=O)N1 (stereo partly drawn)
24.9

====

molecular target: Protein cereblon/Estrogen receptor (Homo sapiens, UniProt P03372+Q96SW2); test: Protac activity at human ERalpha in human MCF7 cells assessed as induction of ERalpha degradation by measuring maximum efficacy at 1 uM incubated for 12 hrs by ICW blot assay relative to control; type: cell-based
Sequence (P03372 whole entry, looked up): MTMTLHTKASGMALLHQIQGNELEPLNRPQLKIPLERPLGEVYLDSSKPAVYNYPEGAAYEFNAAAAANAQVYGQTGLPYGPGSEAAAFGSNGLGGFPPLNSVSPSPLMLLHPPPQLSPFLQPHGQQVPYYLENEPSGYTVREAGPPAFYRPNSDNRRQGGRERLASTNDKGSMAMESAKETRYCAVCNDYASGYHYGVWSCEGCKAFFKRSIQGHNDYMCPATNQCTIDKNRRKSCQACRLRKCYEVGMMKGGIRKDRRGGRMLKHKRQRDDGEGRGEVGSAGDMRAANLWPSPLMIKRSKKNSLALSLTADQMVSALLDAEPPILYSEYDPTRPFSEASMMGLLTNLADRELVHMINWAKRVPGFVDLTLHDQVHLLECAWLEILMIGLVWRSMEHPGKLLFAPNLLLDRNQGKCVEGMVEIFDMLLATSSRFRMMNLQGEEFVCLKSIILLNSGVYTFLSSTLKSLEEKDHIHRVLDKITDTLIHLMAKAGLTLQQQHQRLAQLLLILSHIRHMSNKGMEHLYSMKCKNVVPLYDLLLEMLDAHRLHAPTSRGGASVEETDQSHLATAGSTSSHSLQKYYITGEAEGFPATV
Sequence (Q96SW2 whole entry, looked up): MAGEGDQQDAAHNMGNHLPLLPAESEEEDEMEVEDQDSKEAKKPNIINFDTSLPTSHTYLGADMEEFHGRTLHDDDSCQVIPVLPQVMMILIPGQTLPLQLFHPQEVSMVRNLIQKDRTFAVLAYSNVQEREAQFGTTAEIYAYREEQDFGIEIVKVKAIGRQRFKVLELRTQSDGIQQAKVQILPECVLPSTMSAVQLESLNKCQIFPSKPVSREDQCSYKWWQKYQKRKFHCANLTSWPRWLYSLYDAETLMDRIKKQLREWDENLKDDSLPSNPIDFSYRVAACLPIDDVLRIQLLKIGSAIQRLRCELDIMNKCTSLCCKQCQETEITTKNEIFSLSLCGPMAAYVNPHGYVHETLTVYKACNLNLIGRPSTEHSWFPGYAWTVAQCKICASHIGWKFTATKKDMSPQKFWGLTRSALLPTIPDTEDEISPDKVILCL
# key: entry, value: Emax
Report as a plain number; the unit % is understood.

compound	assay.target	observed.result
O=C1CCC(N2C(=O)c3cc4c(cc3C2=O)CN(C2CCN(CC3CCN(c5ccc([C@@H]6c7ccc(O)cc7CC[C@@H]6c6ccccc6)cc5)CC3)CC2)C4)C(=O)N1 (stereo partly specified)	Protein cereblon/Estrogen receptor (Homo sapiens, UniProt P03372+Q96SW2)	84

Identify measured Emax corresponding to O=C1CCC(N2C(=O)c3cc4c(cc3C2=O)CN(CC(=O)N2CCC3(CC2)CN(c2ccc([C@@H]5c6ccc(O)cc6CC[C@@H]5c5ccccc5)cc2)C3)C4)C(=O)N1 (stereo partly specified)
68

Identify measured Emax corresponding to O=C1CCC(N2C(=O)c3cc4c(cc3C2=O)CN(CCCCCCC2CCN(c3ccc([C@@H]5c6ccc(O)cc6CC[C@@H]5c5ccccc5)cc3)CC2)C4)C(=O)N1 (stereo partly specified)
101

Identify measured Emax corresponding to C[C@@H]1Cc2c(ccc3[nH]ncc23)[C@@H](c2c(F)cc(N3CCC4(CCN(C(=O)CN5Cc6cc7c(cc6C5)C(=O)N(C5CCC(=O)NC5=O)C7=O)CC4)CC3)cc2F)N1CC(F)(F)F (stereo partly specified)
88

Identify measured Emax corresponding to COc1cc(N2CCC3(CCN(C(=O)CN4Cc5cc6c(cc5C4)C(=O)N(C4CCC(=O)NC4=O)C6=O)CC3)CC2)ccc1[C@@H]1c2ccc3[nH]ncc3c2C[C@@H](C)N1CC(F)F (stereo partly specified)
82

Identify measured Emax corresponding to O=C1CCC(N2C(=O)c3cc4c(cc3C2=O)CN(CC2CCN(CC3CCN(c5ccc([C@@H]6c7ccc(O)cc7CC[C@@H]6c6ccccc6)cc5)CC3)CC2)C4)C(=O)N1 (stereo partly specified)
79

====

test: Cmax in Beagle dog at 1 mg/kg, po and measured upto 24 hrs by LC-MS/MS analysis; type: ADME, organism-based, Canis lupus familiaris; set-up: time < 24 hrs, dose 1 mg/kg, route po; details: in vivo
property.name: Cmax (ng/mL)
Report as a plain number; the unit ng/mL is understood.

Identify measured Cmax corresponding to C[C@@H]1Cc2c(ccc3[nH]ncc23)[C@@H](c2c(F)cc(N3CCC4(CCN(C(=O)CN5Cc6cc7c(cc6C5)C(=O)N(C5CCC(=O)NC5=O)C7=O)CC4)CC3)cc2F)N1CC(F)F (stereo partly specified)
87

====

assay: Drug concentration in tumor of CB17 SCID mouse xenografted with human MCF7 cells harboring wild type ESR1 at 30 mg/kg, po qd for 3 days and measured after 6 hrs last dose by LC-MS/MS analysis; format: ADME, organism-based, Neoplasm; conditions: time 3 day, read-out: Ct
property.name: concentration at 72 h (ng/mL)
Report as a plain number; the unit ng/mL is understood.

Identify measured concentration at 72 h corresponding to C[C@@H]1Cc2c(ccc3[nH]ncc23)[C@@H](c2c(F)cc(N3CCC4(CCN(C(=O)CN5Cc6cc7c(cc6C5)C(=O)N(C5CCC(=O)NC5=O)C7=O)CC4)CC3)cc2F)N1CC(F)F (stereo partly specified)
1470

====

target: Cytochrome P450 2D6 (Homo sapiens)
Sequence (P10635 whole entry): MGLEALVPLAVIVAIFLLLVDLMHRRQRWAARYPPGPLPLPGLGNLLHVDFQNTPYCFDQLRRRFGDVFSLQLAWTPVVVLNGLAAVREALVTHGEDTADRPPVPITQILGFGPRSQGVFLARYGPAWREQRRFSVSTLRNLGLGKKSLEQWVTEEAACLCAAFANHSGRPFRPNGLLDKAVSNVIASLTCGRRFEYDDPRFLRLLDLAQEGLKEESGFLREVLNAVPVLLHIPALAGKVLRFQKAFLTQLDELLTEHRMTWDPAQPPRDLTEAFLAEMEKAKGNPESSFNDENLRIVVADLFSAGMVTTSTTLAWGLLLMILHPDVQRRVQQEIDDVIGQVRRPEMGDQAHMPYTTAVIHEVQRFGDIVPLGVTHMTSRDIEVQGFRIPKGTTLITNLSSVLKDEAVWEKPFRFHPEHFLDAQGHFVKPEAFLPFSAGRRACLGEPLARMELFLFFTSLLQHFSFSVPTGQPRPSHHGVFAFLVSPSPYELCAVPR
property.name: IC50

Enter recorded IC50 with Cytochrome P450 2D6 (Homo sapiens) for C[C@@H]1Cc2c(ccc3[nH]ncc23)[C@@H](c2c(F)cc(N3CCC4(CCN(C(=O)CN5Cc6cc7c(cc6C5)C(=O)N(C5CCC(=O)NC5=O)C7=O)CC4)CC3)cc2F)N1CC(F)F (stereo partly specified) here.
> 10 µM

====

# key: entry, value: AUC at 24 h
assay: AUC in Sprague-Dawley rat at 3 mg/kg, po and measured upto 24 hrs by LC-MS/MS analysis; type: ADME, organism-based; design: dose 3 mg/kg, time < 24 hrs, route po; conditions: Sprague-Dawley, in vivo
Report as a plain number; the unit ng·h/mL is understood.

Identify measured AUC at 24 h corresponding to O=C1CCC(N2C(=O)c3cc4c(cc3C2=O)CN(C2CCN(C(=O)C3CCN(c5ccc([C@@H]6c7ccc(O)cc7CC[C@@H]6c6ccccc6)cc5)CC3)CC2)C4)C(=O)N1 (stereo partly specified)
206

====

assay: Drug concentration in tumor of CB17 SCID mouse xenografted with human MCF7 cells harboring wild type ESR1 at 30 mg/kg, po qd for 3 days and measured after 3 hrs last dose by LC-MS/MS analysis; assay type: ADME, organism-based, Neoplasm; conditions: time 3 day, read-out: Ct
property.name: concentration at 72 h
Please report the result as a number followed by the unit.

Identify measured concentration at 72 h corresponding to C[C@@H]1Cc2c(ccc3[nH]ncc23)[C@@H](c2c(F)cc(N3CCC4(CCN(C(=O)CN5Cc6cc7c(cc6C5)C(=O)N(C5CCC(=O)NC5=O)C7=O)CC4)CC3)cc2F)N1CC(F)F (stereo partly specified)
1410 ng/mL

====

assay: Volume of distribution at steady state in ICR mouse at 1 mg/kg, iv and measured upto 24 hrs by LC-MS/MS analysis; type: ADME, organism-based; conditions: in vivo, read-out: Vdss
property.name: Vd (L/kg)
Report as a plain number; the unit L/kg is understood.

compound	observed.result
C[C@@H]1Cc2c(ccc3[nH]ncc23)[C@@H](c2c(F)cc(N3CCC4(CCN(C(=O)CN5Cc6cc7c(cc6C5)C(=O)N(C5CCC(=O)NC5=O)C7=O)CC4)CC3)cc2F)N1CC(F)F (stereo partly drawn)	3.2
O=C1CCC(N2C(=O)c3cc4c(cc3C2=O)CN(C2CCN(CC3CCN(c5ccc([C@@H]6c7ccc(O)cc7CC[C@@H]6c6ccccc6)cc5)CC3)CC2)C4)C(=O)N1 (stereo partly drawn)	16.2

Identify measured Vd corresponding to O=C1CCC(N2C(=O)c3cc4c(cc3C2=O)CN(CC(=O)N2CCC3(CC2)CCN(c2ccc([C@@H]5c6ccc(O)cc6CC[C@@H]5c5ccccc5)cc2)CC3)C4)C(=O)N1 (stereo partly drawn)
2.2
